method-notes: yeast display, Sf9 membrane polyspecificity reagent, FACS + sequencing; frameworks hold sequencing errors

sequence-record	polyreactivity (PSR sort gate)
QVQLVESGGGLVQAGGSLRLSCAASGRIFGRNAMGWYRQAPGKERELVAAISRSGGSTYYADSVKGRFTISRDNAKNTVYLQMNSLKPEFTAVYYCAADVYRTWYWWFDYWGHGTQVTVSS	high polyreactivity
QVQLVESGGGLVQAGGSLRLSCAASGSTFYFYAMGWYRPAPGKERELVAAITYSGGSTYYADSVKGRFTISRDNAKNTVYLQMNSLKPEDTAVYYCAAQWRRHSTRSRYYYWGQGSQVTVSS	high polyreactivity
QVQLVESGGGLVQAGGSLRLSCAASGYTFYEYAMGWYRQAPGKERELGAAIRGSGGGTYYADSVKGRFTISRDNAKNTVYLQMNSLKPEDTAVYYCAVKYAYPYAGVSAIRYYYWGQGTQVTVSS	low polyreactivity
QVQLVESGGGLVQAGGSLRLSCAATGSTSVHNAMGWYRQAPGKERELVDAITSDGSTNYADSVKGRFTISRDNAKNTVYLQMNSLKPEDTAVYFCGAAYWTRLRRMDYWGQGTQVTVSS	low polyreactivity
QVQLVESGGGLVQAGGSLRLRCAASGIIFGTNAMGWYRQAPGKERELVAGITSSGDSTYYADSVKGRFTISRDNAKNTVYLQMNSLKAEDTAVYYCARDIRTREFDSWGQGTQVTVSS	low polyreactivity
QVHLVESGGGLVQAGGSLRLSCAASGFTIAFNAMGSYRQAPGKERELVASITGGGSTNYADSVKGRFTISRDNAKNTVYLQMNSLKPEDTAVYYCAARYFWAWERDLFLEFDYWGQGTQVTVSS	low polyreactivity
QVQLVESGGGLVQAGGSLRLSCAASGIIFKYNAMGRYRQAPGKEREFVAAITGSGGSTYYADSVKGRFTISRDNAKNTVYLQMYSLKPEDTAVYYCARPQWRDWYGYWGQGTQVTVSS	low polyreactivity
QVQLVESGGGLVQAGGSLRLSCAASGSIFAPYAMGLYRQAPGKERELVAAIRSSGGSTHYADSVKGRFTISRDNAKNTVYLQMNSLKPEDTAVYYCARSYGWYRWAGYDYWGQGTQVTVSS	high polyreactivity
QVQLVESGGGLVQAGGSLRLSCAASGRTFIGYAMGWYRQAPGKERELVAASSSGGNTYYADSVKGRFTISRDNAKNTVYLQMNSLKPEDTAVYYCAAKGYRRVARYFIGDYWGQGTQVTVSS	low polyreactivity
QVQLVASGGGLVQAGGSLLLSCAASGRIFAEYAMGWSRQAPGKERELVAVIDGTGGSTYYADSVKGRFTISRDNEKNTVYLLMNSLNPEDTAVYYCAATGRGSGRRFNYWGQGTQVTVSS	high polyreactivity
QVQLVESGGGLVQAGGSLRLSCAASGRTFSYNAMGWYRQAPGKERELVAAITSSGGGTSYADSVKGRFTISRDNAKNTVYLQMNSLKPEDTAVYYCNRVLPHPDGYGVGARGYWGQGTQVSVSS	high polyreactivity
QVQLVESGGGLVQAGGSLRLSCAASGRIFGRYAMGWYRQAPGKERELVASIRSRGGSTYYADSVKGRFTISRDNAKNTVYLQMNSLKPEDTAVYYCAADGTRSYKGYYWGQGTQVTVSS	high polyreactivity
QVQLVESGGGLVQAGGSLRLSCAASGRTFYYNTMGWYRQAPGKERELVASITSGSSTYYADSVKGRFTISRDNAKNTVYLQMNSLKPEDTEVYYCAVYRRYSVKYHYGYWGQGTQVTVSS	high polyreactivity
QVQLVESGGGLVQAGGSLRLSCAASGRTFYGNAMGWYRQAPGKERELVAAISWSGCGTYYADSVKGRFTISRDNAKNTVYLQMNSLKPEDTAVYYCARTLFGRSANRYGYWGQGTQVTVSS	high polyreactivity
QVQLVESGGGLVQAGVSLRLSCAASGRIFNYYTMGWYRQAPGKERELVAAINWSGGSTYYADSVKGRFTISRDNAKNTVYLQMNSLKPEDTAVYYCNALGYYGRAYYRGYDYWGQGTQVTVSS	high polyreactivity
QVQLVESGGGLVQAGGSLRLSCAASGSIFYRNAMGWYRQAPGKERELVAAISSDGSTNYADSVKGRFTISRDNAKNTVYLQMNSLKPEDTAVYYCAAPWTHILDYWGQGTQVTVSS	low polyreactivity
QVQIVDSGGGLVHAGGSLRLSCADSGSIFSGNAKAWYIQATGKERELVAAISRSGGSTYYADSVKGRFTISRDNAKNTVYLQMNSLKPEDTAVYYCNAGRYRAGGWGVGEGYWGQGTQVTVSS	high polyreactivity
QFQLVESGGGLVQAGGSLRLSCAASGRTFWYYDMGWYRQAPGKERELFATITSGGSTNYADSVKGRFTISRDNAKNTVYLQMNSLKPEDTAVYYCAAARWRWQLARDDYWGQGTQVTLSS	high polyreactivity
QVQLVESGGGLVQAGGSLRLSCAASGSTFSRYTMGWYRQAPGKERELVAAISYRGGSTYYADSVKGRFTISRDNAKNTVYLQMNSLKPEDTAVYYCAAEYRVEGSDYDYWGQGSQVTVSS	low polyreactivity
QVQLQESGGGLVQAGGSLRLSCAASGSIFDYVSMGWYRQAPREERELVVTITLGSNTYYADSVKGRFTISSDIGKNTVYLQMNSLNPEDTAVYYCAASALWGYVYPYWGLGTQVTVSS	high polyreactivity
QVQLVESGGGLVQAGGSRRLSCAASGSIFVKYAMGWYRQAPGKERELVAAISQSGVRTYYADSVKGRFTISRDNAKNTVYLQMNSLKPEDTAVYYSAAYSGYYYWGQGTQVTVSS	high polyreactivity

----------
method-notes: yeast display, Sf9 membrane polyspecificity reagent, FACS + sequencing; frameworks hold sequencing errors

sequence-record	polyreactivity (PSR sort gate)
QVQLVESGGGLVQAGGSLRLSCAASGFIFRDYEMGWYRQAPGKERELVAAISWRGGTYYADSVKGRFTISRDNAKNTVYLQMNSLKPEDTAGYYCNATRYRLRPSGVRYKYNYWGQGTQVTVSS	low polyreactivity
QVQLVESGGGLVHAGGSLRLSCAASGRIYRGNAMGWYRQAPGKERELVARITGNDGDTYYADSVKGRFTISRDNEKNTVYLQMKSLKPEDTAVYYCATDTSSYRSRYYYWGQGTQVTVSS	low polyreactivity
QVQHVESGGALVQAGGSLRLSCAASGLIYALSAMGWDRQAPGKEMELVAAIDWSGGSTYYADSVKGRFTISRDNAKNTVYVQMNCLKPEDTAVYYCAADISSSPGNDYWGQGTQLTVSS	high polyreactivity
QVHLVESGGGLVQAGGSLRLSCAASGRLFGVYVMGWYRQAPGKERELVAAISWSGSHTYYADSVKGRFTISRDNAKNTVYLQMNSLKPEDTEVYYCNADSYPDYTGPGLDWYDYWGQGTQVTVSS	low polyreactivity
QVQLVESGGGLVQAGGSLRLSCAASGRIFKGNGMGWYRQAPGKERELVAAISRSGGNTYYADSVKGRFTISRDNAKNTVYLQMNSLKPEDTAVYYCNVRYYTYRFLRFDYWGQGTQVTVSS	high polyreactivity

----------
method-notes: yeast display, Sf9 membrane polyspecificity reagent, FACS + sequencing; frameworks hold sequencing errors
measurement-label: polyreactivity (PSR sort gate)

sequence-record	measurement-label	obs-value
QVQLVESGGGLVQAGGSLRLSCAASGITFSGNTMGWYRQAPGKERELVAAISSGGSTYYADSVKGRFTISRDNAKNTVYLQMNSLKPEDTAVYYCAVDYFYQDGRGYNEYWGQGTQVTVSS	polyreactivity (PSR sort gate)	low polyreactivity
QVQLVESGGGLVQAGGSLRLSCAASGSIFNIYDMGWSRQAPGKERELVAGISWDGDSTYYADSVKGRFTISRDNAKNTVYLQMNSLKPEDTAVEYCAAVYTRAHISYYYWGQGTQVTVSS	polyreactivity (PSR sort gate)	high polyreactivity
QVQLVESGGGLVQAGGSLRLSCAASGIIFVAYARGWYRQAPGKERELVAAITWGGGRTYYADSVKGRFTISRDNAKNTVYLQMNSLKPEDTAVYYCAAVVWYDPRATYVYWGQGTQVTVSS	polyreactivity (PSR sort gate)	low polyreactivity
QVQLVESGGGLVQAGGSLRLSCAASGSTFSIYAMGWYRQAPGKEREFVAAISSSSGSTYYADSVKGRFTISRDNAMNTVYLQMNSLKPEDTAVYYCIRRYRRGGVKGVYYWGQGTQVTVSS	polyreactivity (PSR sort gate)	high polyreactivity
QVQHVESGGGLVQAGGSLRLSCAASGRTLLGNAMGRYRQAPGKEREFVAAISYRGGSTYYADSVKGRFTISRDNAKNTVYLQMNSLKPEDTAVYYCAASSFKYSRFDYWGQGTQVTVSS	polyreactivity (PSR sort gate)	low polyreactivity
QVQLVESGGGLVQEGGSLRLSCAASGITFDNYDMGWYRQAPGKERELVAAISSDDNTTYADSVKGRFTISRDNAMNTVYFQMNSLKTDDTAVYYCAADYRIYGYLEYDYWGQGTQVTVSS	polyreactivity (PSR sort gate)	low polyreactivity
QVQLVESGGGLVQAGGSLRLSCAASGRIFVRNAMGWYRQAPGKEREFVAAISRSGGSTYYAYSVKGRFTISRDNAKNSVYLQMNSLKPEDTAVYYCAADYPKTYTSKFNYWGQGTQVTVSS	polyreactivity (PSR sort gate)	high polyreactivity
QVQLVESGGGLVQAGGSLRLSCAASGSIFVGNAMGWYRPAPGKERELVAAITGRGSRTYYADSVKGRFTLSRDNAKNTVYLQMNSLKPEDTAVYYCAARYTNYGGFYWGQGTQVTVSS	polyreactivity (PSR sort gate)	high polyreactivity
QVQLVESGGGLVQAGGSLRLSCAASGSTFDVYAMGWYRQAPGKERELVAAITWIGGSTYYADSVKGRFTISRDNAKNTVYLQMNSLKPEDTAVYYCARHDYGWVDYWGQGTQVTVSS	polyreactivity (PSR sort gate)	high polyreactivity
QVQLLESGGGLVQAGGSLRLSSASSSFIFYSNDMGSYRQAPGKERELVAAISRRCGSTYYADSVKGRFTISRDNAKNTVFLQMNSLKPEDTAVYYCAARVGSGFDSWGQGTQVTVSS	polyreactivity (PSR sort gate)	high polyreactivity
QVQLVESGGGLVQAVGSLRLSCAASGSTFSRYAMGWYRQAPGKERELVAAISWGGNTYYADSVKGRFTISRDNAKNTVYLQMNSLKPVDTAVYYCNRYSKLYNTMDYWGQGTQVTVSS	polyreactivity (PSR sort gate)	high polyreactivity

# credit: the nanobody polyreactivity screen of Harvey et al. (2022)
